# Tested on: MARIMO
# PROTOCOL DESCRIPTION: cell viability relative to vehicle control; higher = less cytotoxic;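 further: after 48 h exposure read by CellTiter-Glo luminescence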
# TEST CONTEXT: 10 µM; SRSF2 genotype: SRSF2 P95H/wt
PARAMETER MEASURED: cell viability (%)
API: value field is a number in %; no unit string.

{"MOLECULE": "CCC(=O)O[C@@H]1CC(=O)O[C@H](C)C/C=C/C=C/[C@H](O)[C@H](C)C[C@H](CC=O)[C@H](O[C@@H]2O[C@H](C)[C@@H](O[C@H]3C[C@@](C)(O)[C@@H](OC(=O)CC)[C@H](C)O3)[C@H](N(C)C)[C@H]2O)[C@H]1OC [Midecamycin]", "cell viability (%)": 89.3}
{"MOLECULE": "Clc1ccc(COC(Cn2ccnc2)c2ccc(Cl)cc2Cl)c(Cl)c1 (stereo not drawn) [Miconazole (Monistat)]", "cell viability (%)": 61.1}

Please find the next molecule below.
Please provide the recorded cell viability for Cc1ccc(C(=O)N(CCCN)[C@@H](c2oc3cc(Cl)ccc3c(=O)c2Cc2ccccc2)C(C)C)cc1 , tested on MARIMO.
0.39

----------
# Test system: MARIMO
# PROTOCOL DESCRIPTION: cell viability relative to vehicle control; higher = less cytotoxic
# TEST CONTEXT: 10 µM; SRSF2 genotype: SRSF2 P95H/wt
Counter-ions that a name gives are not always drawn.
// boundary case: cell viability equal to 40% maps to false (0); strictly smaller maps to true (1)

Example cases with answers are listed next.
{"MOLECULE": "O=C(Nc1cccnc1)N1CCC(Cc2cccc(Oc3ccc(C(F)(F)F)cn3)c2)CC1", "ASSAYED SYSTEM": "MARIMO", "LABEL": "false (0)"}
{"MOLECULE": "c1ccc(CNc2nc(NCc3ccccc3)c3ccccc3n2)cc1", "ASSAYED SYSTEM": "MARIMO", "LABEL": "true (1)"}
{"MOLECULE": "Cc1cc(/N=N/c2ccc(S(=O)(=O)Nc3ccccn3)cc2)c(N)cc1O", "ASSAYED SYSTEM": "MARIMO", "LABEL": "false (0)"}
{"MOLECULE": "CN1CCN(C(=O)c2ccc(-c3ccc4c(C=O)c(O)ccc4c3)s2)CC1", "ASSAYED SYSTEM": "MARIMO", "LABEL": "false (0)"}

cell viability strictly < 40% for this molecule? CC(C)(C#N)c1ccc(N2C(=O)OCc3cnc4ccc(-c5cnc6ccccc6c5)cc4c32)cc1
false (0)

Given COc1c(C)cnc(Cn2cnc3c(Cl)nc(N)nc32)c1C , is recorded cell viability strictly lower than 40%?
true (1)

cell viability strictly < 40% for this molecule? CO/N=C1\C[C@]2(C[C@@H]3C[C@@H](C/C=C(\C)C[C@@H](C)/C=C/C=C4\CO[C@@H]5[C@H](O)C(C)=C[C@@H](C(=O)O3)[C@]45O)O2)O[C@H](/C(C)=C/C(C)C)[C@H]1C
false (0)

Please determine if CCN(CC)CC(=O)Nc1c(C)cccc1C [Lidocaine (Alphacaine)] is below 40% in terms of cell viability.
false (0)

Strictly below 40%: is that where cell viability of CNC(=C[N+](=O)[O-])NCCSCc1ccc(CN(C)C)o1 [Ranitidine Hydrochloride] sits?
false (0)

----------
Quick reference: cell viability of the listed items.
# Test system: MOLM14
# PROTOCOL DESCRIPTION: cell viability relative to vehicle control; higher = less cytotoxic
# TEST CONTEXT: 10 µM; SRSF2 genotype: SRSF2 P95H/wt
Structures can show the parent of a compound that is named as a salt.
The reply should contain only the number, in %.

Check out these entries, answers already filled in.
{"COMPOUND": "CN1CCC(NC(=O)c2cc(-c3c(O)cc(O)cc3Oc3ccc([N+](=O)[O-])cc3)on2)CC1", "ASSAYED SYSTEM": "MOLM14", "PARAMETER MEASURED": "cell viability", "NUMBER": 1.68}
{"COMPOUND": "O=C(NCc1ccccc1)c1csc(Nc2ccncn2)n1", "ASSAYED SYSTEM": "MOLM14", "PARAMETER MEASURED": "cell viability", "NUMBER": 37.8}
{"COMPOUND": "CN(Cc1cc(Br)cc(Br)c1N)C1CCCCC1 [Bromhexine HCl]", "ASSAYED SYSTEM": "MOLM14", "PARAMETER MEASURED": "cell viability", "NUMBER": 96.7}
{"COMPOUND": "Cc1ccc(C(C)C)cc2c(C)ccc1-2", "ASSAYED SYSTEM": "MOLM14", "PARAMETER MEASURED": "cell viability", "NUMBER": 93.5}
{"COMPOUND": "CO/N=C1\\C[C@]2(C[C@@H]3C[C@@H](C/C=C(\\C)C[C@@H](C)/C=C/C=C4\\CO[C@@H]5[C@H](O)C(C)=C[C@@H](C(=O)O3)[C@]45O)O2)O[C@H](/C(C)=C/C(C)C)[C@H]1C", "ASSAYED SYSTEM": "MOLM14", "PARAMETER MEASURED": "cell viability", "NUMBER": 46.9}

Can you share its cell viability? I mean this compound: CC[C@H]1OC(=O)C[C@@H](O)[C@H](C)[C@@H](O[C@@H]2O[C@H](C)[C@@H](O[C@H]3C[C@@](C)(O)[C@@H](O)[C@H](C)O3)[C@H](N(C)C)[C@H]2O)[C@@H](CC=O)C[C@@H](C)C(=O)/C=C/C(C)=C/[C@@H]1CO[C@@H]1O[C@H](C)[C@@H](O)[C@@H](OC)[C@H]1OC
101

State the recorded cell viability for this entry: COc1ccccc1C(=O)Nc1cc2c(cc1N1CCCC1)n(C)c(=O)n2C
79.4

Bench note: what cell viability did COc1cc(/C=C/C(=O)O[C@H]2[C@H](O)[C@@H](CO)O[C@@]2(CO)O[C@H]2O[C@H](CO)[C@@H](O)[C@H](O)[C@H]2O)ccc1O show?
110

Given the compound CC1(C)CC[C@]2(C)CC[C@]3(C)C(=CC[C@@H]4[C@@]5(C)CC[C@@H](O)[C@](C)(C(=O)O)[C@@H]5CC[C@]43C)[C@@H]2C1 , what is its reported cell viability?
102

----------
# Test system: MARIMO
# PROTOCOL DESCRIPTION: cell viability relative to vehicle control; higher = less cytotoxic
# TEST CONTEXT: 10 µM; SRSF2 genotype: SRSF2 P95H/wt
Where a name gives a salt, the structure may show the parent alone.
PARAMETER MEASURED: cell viability (%)
Just the number in %, nothing appended.

Reference set (5 entries):
{"COMPOUND": "CO[C@@H](C(=O)N1Cc2[nH]nc(NC(=O)c3ccc(N4CCN(C)CC4)cc3)c2C1)c1ccccc1", "ASSAYED SYSTEM": "MARIMO", "RESULT UNITS": "%", "cell viability": 63.3}
{"COMPOUND": "OC(CNCC(O)C1CCc2cc(F)ccc2O1)C1CCc2cc(F)ccc2O1 (centres undefined) [Nebivolol HCl]", "ASSAYED SYSTEM": "MARIMO", "RESULT UNITS": "%", "cell viability": 60.4}
{"COMPOUND": "Cc1n[nH]c2ncc(C(=O)N3CCC[C@H]3c3ccc(Cl)cc3)cc12", "ASSAYED SYSTEM": "MARIMO", "RESULT UNITS": "%", "cell viability": 101}
{"COMPOUND": "CCC1(c2ccccc2)C(=O)NCNC1=O", "ASSAYED SYSTEM": "MARIMO", "RESULT UNITS": "%", "cell viability": 106}
{"COMPOUND": "CN(CC(=O)N(Cc1ccc(C2CCCCC2)cc1)c1ccc(C(=O)O)c(O)c1)S(=O)(=O)c1c(F)c(F)c(F)c(F)c1F", "ASSAYED SYSTEM": "MARIMO", "RESULT UNITS": "%", "cell viability": 57.8}

Endpoint output: cell viability of CC1CCc2cc(F)cc3c(=O)c(C(=O)O)cn1c23 (centres undefined) . Value?
95.6

# query: cell viability of entry O=c1oc2c(O)c(O)cc3c(=O)oc4c(O)c(O)cc1c4c23
96.3

# lookup: cell viability of Cn1c([N+](=O)[O-])cnc1COC(N)=O
97.3

May I ask what cell viability has been recorded for COc1cc(N2CCN(C)CC2)ccc1Nc1nccc(-c2cn(C)c3cnccc23)n1 ?
41

----------
# Tested on: OCI-AML2
# PROTOCOL DESCRIPTION: cell viability relative to vehicle control; higher = less cytotoxic
# TEST CONTEXT: 10 µM; SRSF2 genotype: P95H/wt
Reported cell viability values are given for each entry in this list.
Your answer is read as %, so omit the unit and give the number.

Before answering, review these 8 worked examples.
{"COMPOUND": "N#CCC1(n2cc(-c3ncnc4[nH]ccc34)cn2)CN(C2CCN(C(=O)c3ccnc(C(F)(F)F)c3F)CC2)C1", "ASSAYED SYSTEM": "OCI-AML2", "cell viability [%]": 108}
{"COMPOUND": "COc1cccc(OC)c1C(=O)OCc1cc(O)ccc1O[C@@H]1O[C@H](CO)[C@@H](O)[C@H](O)[C@H]1O [Curculigoside]", "ASSAYED SYSTEM": "OCI-AML2", "cell viability [%]": 115}
{"COMPOUND": "C[C@@H]1C(=O)O[C@H](C)[C@H]1C[C@@H](O)[C@](C)(O)[C@H]1CC[C@@]2(O)C3=CC(=O)[C@@H]4C[C@@H](O)[C@@H](O)C[C@]4(C)[C@H]3CC[C@]12C [Cyasterone]", "ASSAYED SYSTEM": "OCI-AML2", "cell viability [%]": 105}
{"COMPOUND": "O=C(CCCCc1ccc2c(c1)OCO2)N1CCCCC1 [Tetrahydropiperine]", "ASSAYED SYSTEM": "OCI-AML2", "cell viability [%]": 85}
{"COMPOUND": "Nc1ncnc2c1ncn2[C@@H]1O[C@H](COP(=O)(O)O)[C@@H](O)[C@H]1O [5'-Adenylic acid]", "ASSAYED SYSTEM": "OCI-AML2", "cell viability [%]": 99.6}
{"COMPOUND": "Cn1cc(C2=C(c3cccc(N)c3)C(=O)NC2=O)c2ccccc21", "ASSAYED SYSTEM": "OCI-AML2", "cell viability [%]": 78.8}
{"COMPOUND": "C[C@]12CCC(=O)C=C1CC[C@@H]1[C@@H]2[C@@H](O)C[C@@]2(C)[C@H]1CC[C@]2(O)C(=O)CO [Hydrocortisone (Cortisol)]", "ASSAYED SYSTEM": "OCI-AML2", "cell viability [%]": 109}
{"COMPOUND": "CCCCCCCCCCCC[N+](C)(C)CCOc1ccccc1 [Domiphen Bromide]", "ASSAYED SYSTEM": "OCI-AML2", "cell viability [%]": 0.4}

Lab note: next compound to report on.
What does the data say about its cell viability? Entry: COCCc1ccc(OCC(O)CNC(C)C)cc1 (stereo not given) [Metroprolol succinate]
113
